# System: Balamuthia mandrillaris (ATCC PRA-291) trophozoites, axenic culture
# protocol_description: primary screen, percent inhibition; higher = more effect of the substance;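 further: 0% = vehicle wells and 100% = lysate wells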
# assay_context: 20 µM
About 15 (0.8%) of roughly 2,000 compounds showed an effect of 50% or more. The full list was thinned out, with strong results kept by preference. Where a SMILES comes first, the peptide text is derived from it. [ ]: non-standard residue; d: D form. pGlu = O=C1CC[C@@H](C(=O)O)N1; Thz = O=C(O)[C@@H]1CSCN1
Classification field. Basis: % Inhibition. Definitions: L: < 10%; M: ≥ 10% and < 20%; H: ≥ 20%

compound	test_target	label_class
CN(C)CCOC(c1ccc(Cl)cc1)c1ccccn1 (stereo not shown)	Balamuthia mandrillaris (ATCC PRA-291) trophozoites, axenic culture	L
C[N+]1(C)C2CC(OC(=O)[C@@H](CO)c3ccccc3)CC1C1OC12 (stereo partly shown)	Balamuthia mandrillaris (ATCC PRA-291) trophozoites, axenic culture	M
NC[C@H](O)c1ccc(O)c(O)c1	Balamuthia mandrillaris (ATCC PRA-291) trophozoites, axenic culture	M
CC(=O)OCC(=O)[C@@]1(O)CCC2C3CCC4=CC(=O)CC[C@]4(C)C3[C@@H](O)C[C@@]21C (stereo partly shown)	Balamuthia mandrillaris (ATCC PRA-291) trophozoites, axenic culture	H
CCC(=O)OCC(=O)C1(OC(=O)CC)C(C)CC2C3CCC4=CC(=O)C=CC4(C)C3(Cl)C(O)CC21C (stereo not shown)	Balamuthia mandrillaris (ATCC PRA-291) trophozoites, axenic culture	H
O=C1NCCN1CCN1CCC(c2cn(-c3ccc(F)cc3)c3ccc(Cl)cc23)CC1	Balamuthia mandrillaris (ATCC PRA-291) trophozoites, axenic culture	H
CC[C@@H](C(=O)[C@@H](C)[C@@H](O)[C@H](C)[C@@H]1O[C@@H]([C@@H](CC)C(=O)O)CC[C@@H]1C)[C@H]1OC2(C=C[C@@H](O)[C@]3(CC[C@@](C)([C@H]4CC[C@](O)(CC)[C@H](C)O4)O3)O2)[C@H](C)C[C@@H]1C (stereo partly shown)	Balamuthia mandrillaris (ATCC PRA-291) trophozoites, axenic culture	M
CC[C@@]1(O)C(=O)OCc2c1cc1n(c2=O)Cc2cc3c([N+](=O)[O-])cccc3nc2-1	Balamuthia mandrillaris (ATCC PRA-291) trophozoites, axenic culture	L
N=C(N)N	Balamuthia mandrillaris (ATCC PRA-291) trophozoites, axenic culture	M
O=C(O)COC(=O)Cc1ccccc1Nc1c(Cl)cccc1Cl	Balamuthia mandrillaris (ATCC PRA-291) trophozoites, axenic culture	L
CC[C@H](NC(C)C)[C@H](O)c1ccc(O)c2nc(O)ccc12	Balamuthia mandrillaris (ATCC PRA-291) trophozoites, axenic culture	L
CC(C)(C)NC[C@H](O)COc1nsnc1N1CCOCC1	Balamuthia mandrillaris (ATCC PRA-291) trophozoites, axenic culture	L
CCCCCN(C)CCC(O)(P(=O)(O)O)P(=O)(O)O	Balamuthia mandrillaris (ATCC PRA-291) trophozoites, axenic culture	H
CC(C)OC(=O)CCC/C=C\C[C@@H]1[C@@H](CC[C@@H](O)CCc2ccccc2)[C@H](O)C[C@@H]1O	Balamuthia mandrillaris (ATCC PRA-291) trophozoites, axenic culture	M
CO/N=C(\C(=O)NC1C(=O)N2C(C(=O)OCOC(=O)C(C)(C)C)=C(/C=C\c3scnc3C)CSC12)c1csc(N)n1 (stereo not shown)	Balamuthia mandrillaris (ATCC PRA-291) trophozoites, axenic culture	L
NC(=O)N1c2ccccc2C=Cc2ccccc21	Balamuthia mandrillaris (ATCC PRA-291) trophozoites, axenic culture	L
O=C(O)CCCO	Balamuthia mandrillaris (ATCC PRA-291) trophozoites, axenic culture	M
Cc1c(C(N)=O)cc([N+](=O)[O-])cc1[N+](=O)[O-]	Balamuthia mandrillaris (ATCC PRA-291) trophozoites, axenic culture	H
NC(=O)[C@@H]1CCCN1C(=O)[C@H](Cc1cnc[nH]1)NC(=O)[C@@H]1CCC(=O)N1	Balamuthia mandrillaris (ATCC PRA-291) trophozoites, axenic culture	L
CCCCc1oc2ccccc2c1C(=O)c1cc(I)c(OCCN(CC)CC)c(I)c1	Balamuthia mandrillaris (ATCC PRA-291) trophozoites, axenic culture	M
O=C1CC[C@@H](C(=O)N2CSC[C@H]2C(=O)O)N1 ([pGlu]-[Thz]-OH)	Balamuthia mandrillaris (ATCC PRA-291) trophozoites, axenic culture	M
CN(C)CCC=C1c2ccccc2C=Cc2ccccc21	Balamuthia mandrillaris (ATCC PRA-291) trophozoites, axenic culture	H
NC[C@H]1O[C@H](O[C@H]2[C@H](O)[C@@H](O[C@H]3O[C@H](CO)[C@@H](O)[C@H](N)[C@H]3O)[C@H](N)C[C@@H]2N)[C@H](O)[C@@H](O)[C@@H]1O	Balamuthia mandrillaris (ATCC PRA-291) trophozoites, axenic culture	M
CCCCC1=NC2(CCCC2)C(=O)N1Cc1ccc(-c2ccccc2-c2nn[nH]n2)cc1	Balamuthia mandrillaris (ATCC PRA-291) trophozoites, axenic culture	M
C=CCN1CC[C@]23c4c5ccc(O)c4OC2C(=O)CC[C@@]3(O)[C@H]1C5 (stereo partly shown)	Balamuthia mandrillaris (ATCC PRA-291) trophozoites, axenic culture	H
O=C(O)C[C@H](O)C[C@H](O)/C=C/c1c(C2CC2)nc2ccccc2c1-c1ccc(F)cc1	Balamuthia mandrillaris (ATCC PRA-291) trophozoites, axenic culture	M
COc1ccc2cc([C@H](C)C(=O)O)ccc2c1	Balamuthia mandrillaris (ATCC PRA-291) trophozoites, axenic culture	H
CO/N=C(\C(=O)N[C@@H]1C(=O)N2C(C(=O)O)=C(CSc3nc(=O)c(=O)[nH]n3C)CS[C@@H]12)c1csc(N)n1	Balamuthia mandrillaris (ATCC PRA-291) trophozoites, axenic culture	M
CC(=O)OCC(=O)[C@@]1(O)CCC2C3CCC4=CC(=O)C=C[C@]4(C)[C@@]3(F)[C@@H](O)C[C@@]21C (stereo partly shown)	Balamuthia mandrillaris (ATCC PRA-291) trophozoites, axenic culture	M
CC(=O)OCC(=O)[C@@]1(O)CCC2C3CCC4=CC(=O)CC[C@]4(C)[C@@]3(F)[C@@H](O)C[C@@]21C (stereo partly shown)	Balamuthia mandrillaris (ATCC PRA-291) trophozoites, axenic culture	M
CC(C)C[C@H](NC(=O)[C@@H](Cc1c[nH]c2ccccc12)NC(=O)[C@H](Cc1ccc(O)cc1)NC(=O)[C@H](CO)NC(=O)[C@H](Cc1c[nH]c2ccccc12)NC(=O)[C@H](Cc1c[nH]cn1)NC(=O)[C@@H]1CCC(=O)N1)C(=O)N[C@@H](CCCN=C(N)N)C(=O)N1CCC[C@H]1C(=O)NCC(N)=O	Balamuthia mandrillaris (ATCC PRA-291) trophozoites, axenic culture	L
CO[C@@H]1[C@@H](O[C@@H]2O[C@H](C)[C@@H](O[C@H]3C[C@@](C)(O)[C@H](O)[C@H](C)O3)[C@H](N(C)C)[C@H]2O)[C@@H](CC=O)C[C@@H](C)[C@@H](O[C@H]2CC[C@H](N(C)C)[C@@H](C)O2)/C=C/C=C/C[C@H](C)OC(=O)C[C@H]1O	Balamuthia mandrillaris (ATCC PRA-291) trophozoites, axenic culture	L
C=CCCCCCCCCC(=O)O	Balamuthia mandrillaris (ATCC PRA-291) trophozoites, axenic culture	H
